Cited source: ChEMBL document CHEMBL5352494

# experiment-summary: in vitro
# test-settings: human, Caco-2
readout-label: Papp A→B at 10 µM (×10⁻⁶ cm/s)
Express it in ×10⁻⁶ cm/s; write the number only.

Would you kindly share the measured Papp A→B at 10 µM for CNC(=C[N+](=O)[O-])NCCSCc1ccc(CN(C)C)o1 [RANITIDINE] ?
0.3
